Origin of measurements: the kinase profiling compilation of Christmann-Franck et al. (2016)

target: PHKG2 (human) (UniProt P15735); experiment: KINOMEscan competition binding; details: compound 10.0 µM
Sequence (P15735 whole entry, looked up): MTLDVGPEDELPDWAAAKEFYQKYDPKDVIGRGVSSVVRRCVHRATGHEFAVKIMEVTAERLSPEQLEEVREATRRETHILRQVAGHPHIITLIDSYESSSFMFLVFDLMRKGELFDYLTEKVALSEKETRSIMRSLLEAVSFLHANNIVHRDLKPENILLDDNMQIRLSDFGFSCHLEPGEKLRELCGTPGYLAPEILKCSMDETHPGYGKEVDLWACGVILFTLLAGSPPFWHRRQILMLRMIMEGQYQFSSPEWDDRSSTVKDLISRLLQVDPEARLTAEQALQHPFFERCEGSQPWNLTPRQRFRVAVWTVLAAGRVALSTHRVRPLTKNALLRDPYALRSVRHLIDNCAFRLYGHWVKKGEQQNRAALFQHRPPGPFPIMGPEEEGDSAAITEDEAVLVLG
Response field label: string, one of t (kinase still bound, per cent of control strictly below 30%) or f.

For orientation, consider the following solved cases.
CN1C(=O)c2ccccc2N(C)c2nc(Nc3ccc(N4CCC(O)CC4)cc3)ncc21
f
CN1C(=O)c2ccccc2N(C)c2nc(NS(=O)(=O)c3ccc(N)cc3)ncc21
f

// next entry
input: API: query returns whether the compound falls strictly under 30% in kinase still bound, per cent of control. Query: `Cc1cn(-c2cc(NC(=O)c3cccc4cc(-c5ccc(/C=C6\SC(=N)NC6=O)o5)ccc34)cc(C(F)(F)F)c2)cn1`
output: t

---

target: CDK11B (human) (UniProt P21127); assay: KINOMEscan competition binding; conditions: compound 10.0 µM
Sequence (P21127 whole entry, looked up): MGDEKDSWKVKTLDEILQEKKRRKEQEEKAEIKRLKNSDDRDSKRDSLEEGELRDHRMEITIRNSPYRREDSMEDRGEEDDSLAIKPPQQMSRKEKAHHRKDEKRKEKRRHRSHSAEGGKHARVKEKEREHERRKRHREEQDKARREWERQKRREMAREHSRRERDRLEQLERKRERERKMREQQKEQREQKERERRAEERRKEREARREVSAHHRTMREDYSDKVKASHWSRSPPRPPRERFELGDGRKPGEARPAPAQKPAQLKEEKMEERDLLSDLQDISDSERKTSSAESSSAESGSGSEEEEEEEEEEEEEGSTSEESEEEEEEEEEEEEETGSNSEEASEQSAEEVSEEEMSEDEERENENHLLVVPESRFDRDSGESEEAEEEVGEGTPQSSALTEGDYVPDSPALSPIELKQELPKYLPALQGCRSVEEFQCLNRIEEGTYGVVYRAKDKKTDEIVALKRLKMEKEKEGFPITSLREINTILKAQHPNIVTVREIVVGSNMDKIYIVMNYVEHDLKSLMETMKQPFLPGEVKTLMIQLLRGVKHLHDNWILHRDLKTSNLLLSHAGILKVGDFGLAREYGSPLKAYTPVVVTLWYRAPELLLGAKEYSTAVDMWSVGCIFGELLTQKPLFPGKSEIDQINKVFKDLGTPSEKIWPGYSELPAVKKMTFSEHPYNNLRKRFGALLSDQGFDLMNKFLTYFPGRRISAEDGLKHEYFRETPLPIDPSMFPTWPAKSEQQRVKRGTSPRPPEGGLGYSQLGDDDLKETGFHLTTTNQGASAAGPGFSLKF
measured attribute: kinase still bound, per cent of control (%)
Return type: number; implicit unit %.

O=C1NC(=O)/C(=C/c2c[nH]c(=O)c(-c3ccc(N4CCNCC4)nc3)c2)S1
100

# kinase still bound, per cent of control of `CN1C(=O)c2ccccc2N(C)c2nc(NS(=O)(=O)c3ccc(N)cc3)ncc21` = 96

# kinase still bound, per cent of control of `CCN1CCN(Cc2cc(NC(=O)c3cccc4cc(-c5ccc(/C=C6\SC(=O)NC6=O)o5)ccc34)cc(C(F)(F)F)c2)CC1` = 30

# kinase still bound, per cent of control of `CN1C(=O)c2ccccc2N(C)c2nc(Nc3ccc(N4CCC(O)CC4)cc3)ncc21` = 100

# kinase still bound, per cent of control of `CN1CCN(c2ccc(C(=O)Nc3ncc4c(n3)N(C)c3ccccc3C(=O)N4C)cc2)CC1` = 100

# kinase still bound, per cent of control of `COc1cc(N2CCN(C)CC2)ccc1Nc1ncc2c(n1)Nc1ccccc1NC2=O` = 100

# kinase still bound, per cent of control of `COc1cc(N2CCN(C)CC2)ccc1Nc1ncc2c(n1)N(C)c1ccccc1N(C)C2=O` = 100

# kinase still bound, per cent of control of `COc1cc(N2CCC(O)CC2)ccc1Nc1ncc2c(n1)N1CCc3cccc(c31)C(=O)N2C` = 100

# kinase still bound, per cent of control of `COc1cc(N2CCN(C)CC2)ccc1Nc1ncc2c(n1)N(C)c1sccc1C(=O)N2C` = 85

---

Reported kinase still bound, per cent of control values follow for various compounds
biological target: RPS6KA4 KD1 (human); experiment: KINOMEscan competition binding; settings: compound 10.0 µM
Return type: number; implicit unit %.

# kinase still bound, per cent of control of `COc1cc(N2CCC(O)CC2)ccc1Nc1ncc2c(n1)N1CCc3cccc(c31)C(=O)N2C` = 96

# kinase still bound, per cent of control of `COc1cc(N2CCN(C)CC2)ccc1Nc1ncc2c(n1)Nc1ccccc1NC2=O` = 100

# kinase still bound, per cent of control of `COc1cc(N2CCN(C)CC2)ccc1Nc1ncc2c(n1)N(C)c1ccccc1N(C)C2=O` = 100

# kinase still bound, per cent of control of `O=C1NC(=O)/C(=C/c2c[nH]c(=O)c(-c3ccc(N4CCNCC4)nc3)c2)S1` = 100

# kinase still bound, per cent of control of `COc1cc(N2CCN(C)CC2)ccc1Nc1ncc2c(n1)N(C)c1sccc1C(=O)N2C` = 100

# kinase still bound, per cent of control of `CN1C(=O)c2ccccc2N(C)c2nc(Nc3ccc(N4CCC(O)CC4)cc3)ncc21` = 100

# kinase still bound, per cent of control of `CN1C(=O)c2ccccc2N(C)c2nc(NS(=O)(=O)c3ccc(N)cc3)ncc21` = 100

# kinase still bound, per cent of control of `CN1CCN(c2ccc(C(=O)Nc3ncc4c(n3)N(C)c3ccccc3C(=O)N4C)cc2)CC1` = 100

# kinase still bound, per cent of control of `N=C1NC(=O)/C(=C/c2ccc(-c3cncc4ccccc34)o2)S1` = 15

---

Reported kinase still bound, per cent of control values follow for various compounds
target: CDK8 (human); experiment: KINOMEscan competition binding; settings: compound 10.0 µM
Return type: number; implicit unit %.

// worked examples, kinase still bound, per cent of control included
COc1cc(N2CCN(C)CC2)ccc1Nc1ncc2c(n1)N(C)c1sccc1C(=O)N2C
100
CN1C(=O)c2ccccc2N(C)c2nc(Nc3ccc(N4CCC(O)CC4)cc3)ncc21
100

Observed kinase still bound, per cent of control on CDK8 (human), entry `CN1CCN(c2ccc(C(=O)Nc3ncc4c(n3)N(C)c3ccccc3C(=O)N4C)cc2)CC1` , equals 100

Observed kinase still bound, per cent of control on CDK8 (human), entry `COc1cc(N2CCN(C)CC2)ccc1Nc1ncc2c(n1)Nc1ccccc1NC2=O` , equals 55

Observed kinase still bound, per cent of control on CDK8 (human), entry `COc1cc(N2CCC(O)CC2)ccc1Nc1ncc2c(n1)N1CCc3cccc(c31)C(=O)N2C` , equals 100

Observed kinase still bound, per cent of control on CDK8 (human), entry `N=C1NC(=O)/C(=C/c2ccc(-c3cncc4ccccc34)o2)S1` , equals 11

Observed kinase still bound, per cent of control on CDK8 (human), entry `COc1cc(N2CCN(C)CC2)ccc1Nc1ncc2c(n1)N(C)c1ccccc1N(C)C2=O` , equals 88

Observed kinase still bound, per cent of control on CDK8 (human), entry `CN1C(=O)c2ccccc2N(C)c2nc(NS(=O)(=O)c3ccc(N)cc3)ncc21` , equals 100

Observed kinase still bound, per cent of control on CDK8 (human), entry `O=C1NC(=S)S/C1=C\c1ccc(-c2cncc3ccccc23)o1` , equals 10

Observed kinase still bound, per cent of control on CDK8 (human), entry `O=C1NC(=O)/C(=C/c2c[nH]c(=O)c(-c3ccc(N4CCNCC4)nc3)c2)S1` , equals 44

---

target: CSF1R (human); assay: KINOMEscan competition binding; settings: compound 10.0 µM
Response field label: string, one of met (kinase still bound, per cent of control strictly below 10%) or not met.

For orientation, consider the following solved cases.
COc1cc(N2CCC(O)CC2)ccc1Nc1ncc2c(n1)N1CCc3cccc(c31)C(=O)N2C
not met
COc1cc(N2CCN(C)CC2)ccc1Nc1ncc2c(n1)N(c1ccccc1)CCC(=O)N2
not met
COc1cc(N2CCN(C)CC2)ccc1Nc1ncc2c(n1)N(C)c1sccc1C(=O)N2C
not met

input: API: query returns whether the molecule falls strictly under 10% in kinase still bound, per cent of control. Query: `COc1cc(N2CCN(C)CC2)ccc1Nc1ncc2c(n1)Nc1ccccc1NC2=O`
output: not met

input: API: query returns whether the molecule falls strictly under 10% in kinase still bound, per cent of control. Query: `CN1C(=O)c2ccccc2N(C)c2nc(Nc3ccc(N4CCC(O)CC4)cn3)ncc21`
output: not met

input: API: query returns whether the molecule falls strictly under 10% in kinase still bound, per cent of control. Query: `COc1cc(N2CCN(C)CC2)ccc1Nc1ncc2c(n1)N1CCC[C@H]1CC(=O)N2`
output: met

input: API: query returns whether the molecule falls strictly under 10% in kinase still bound, per cent of control. Query: `COc1cc(N2CCN(C)CC2)ccc1Nc1ncc2c(n1)N(C)c1ccccc1N(C)C2=O`
output: not met

input: API: query returns whether the molecule falls strictly under 10% in kinase still bound, per cent of control. Query: `CN1CCN(c2ccc(C(=O)Nc3ncc4c(n3)N(C)c3ccccc3C(=O)N4C)cc2)CC1`
output: not met

---

target: TESK1 (human); experiment: KINOMEscan competition binding; conditions: compound 10.0 µM
Reported kinase still bound, per cent of control values follow for various compounds
Number first, unit second.

// worked examples, kinase still bound, per cent of control included
CN1C(=O)c2ccccc2N(C)c2nc(NS(=O)(=O)c3ccc(N)cc3)ncc21
100%
COc1cc(N2CCC(O)CC2)ccc1Nc1ncc2c(n1)N1CCc3cccc(c31)C(=O)N2C
100%

Next item in the queue.
# kinase still bound, per cent of control of `COc1cc(N2CCN(C)CC2)ccc1Nc1ncc2c(n1)N(C)c1ccccc1N(C)C2=O` = 76%

---

target: RIOK3 (human); assay: KINOMEscan competition binding; settings: compound 10.0 µM
measured attribute: kinase still bound, per cent of control (%)
Return type: number; implicit unit %.

// worked examples, kinase still bound, per cent of control included
COc1cc(N2CCN(C)CC2)ccc1Nc1ncc2c(n1)Nc1ccccc1NC2=O
68
N=C1NC(=O)/C(=C/c2c[nH]c(=O)c(-c3ccc(S(N)(=O)=O)cc3)c2)S1
17
O=C1NC(=O)/C(=C/c2c[nH]c(=O)c(-c3ccc(N4CCNCC4)nc3)c2)S1
3.4
COc1cc(N2CCC(O)CC2)ccc1Nc1ncc2c(n1)N1CCc3cccc(c31)C(=O)N2C
92
N=C1NC(=O)/C(=C/c2c[nH]c(=O)c(-c3ccc(N4CCNCC4)nc3)c2)S1
9.4
CSC1=NC(=O)/C(=C/c2c[nH]c(=O)c(-c3ccc(NS(C)(=O)=O)cc3)c2)S1
7.4
NS(=O)(=O)c1ccc(-c2ccc(/C=C3\C(=O)Nc4cccc(Br)c43)o2)cc1
17
CS(=O)(=O)Nc1ccc(-c2cncc(/C=C3\SC(=N)NC3=O)c2)cc1
19

Next item in the queue.
# kinase still bound, per cent of control of `O=C1NC(=O)/C(=C/c2c[nH]c(=O)c(-c3ccc(C(=O)Nc4ccc(N5CCNCC5)cc4)cc3)c2)S1` = 13
